Experiment: Cytotoxicity assay (MTT) on NHDF
Format: cell-based, human
Settings: human, NHDF cells (non-tumor human dermal fibroblasts), 30 µM, 72 h, MTT; read-out: Cytotoxicity (% cell viability at 30 µM) NHDF
Description: XO inhibitory and antioxidant assays were performed in triplicate while antiproliferative assay was conducted in quadruplicate. For each assay, at least two independent experiments were performed. […] All in vitro results are expressed as mean values ± standard deviation (SD) of at least two independent determinations. The difference between groups was analyzed for each assay by Student’s t-test. […]
reportedProperty: viability at 72 h, 30 µM (%)
Form entry: value (%) — number only.

CCn1c(O)c(C(c2ccc(C#N)cc2)c2c(O)n(CC)c(=S)n(CC)c2=O)c(=O)n(CC)c1=S [Compound 5]    86.5
CCn1c(O)c(C(c2ccc([N+](=O)[O-])cc2[N+](=O)[O-])c2c(O)n(CC)c(=S)n(CC)c2=O)c(=O)n(CC)c1=S [Compound 15]    91.2

Per the record, CCn1c(O)c(C(C(C)=Cc2ccccc2)c2c(O)n(CC)c(=S)n(CC)c2=O)c(=O)n(CC)c1=S [Compound 18] has viability at 72 h, 30 µM of 86.5

Measured viability at 72 h, 30 µM, O=c1[nH]cc(F)c(=O)[nH]1 [Compound 5-FU, 5-fluorouracil, reference compound] : 20.9

Record summary for CCn1c(O)c(C(c2ccc(Br)cc2)c2c(O)n(CC)c(=S)n(CC)c2=O)c(=O)n(CC)c1=S [Compound 11] : reported viability at 72 h, 30 µM = 94.3

Measured viability at 72 h, 30 µM, CCn1c(O)c(C(c2cccnc2)c2c(O)n(CC)c(=S)n(CC)c2=O)c(=O)n(CC)c1=S [Compound 19] : 81

Noted for CCn1c(O)c(C(c2ccc(NC(C)=O)cc2)c2c(O)n(CC)c(=S)n(CC)c2=O)c(=O)n(CC)c1=S [Compound 9] : its viability at 72 h, 30 µM reads 81.3

Item: CCn1c(O)c(C(c2ccccc2)c2c(O)n(CC)c(=S)n(CC)c2=O)c(=O)n(CC)c1=S [Compound 3] | viability at 72 h, 30 µM: 88.7

viability at 72 h, 30 µM reported for this molecule CCn1c(O)c(C(c2cc3c(cc2[N+](=O)[O-])OCO3)c2c(O)n(CC)c(=S)n(CC)c2=O)c(=O)n(CC)c1=S [Compound 17] : 68.9
